I'd appreciate it if you could supply EC50 values for the items below.
Molecular target: SARS-CoV-2 spike protein receptor binding domain (RBD) (SARS-CoV-2, UniProt P0DTC2 319-539)
Assay: ELISA on coated RBD protein
Answers are plain numbers, in ng/mL.

These solved cases illustrate the format of a correct answer.
# Binder, Observed Property, Unit Info, Result Number
records = [
    ("C054 (antibody, V domains shown) VH: EVQLVESGGGLIQPGGSLRLSCAASGFTVSNNYMSWVRQAPGKGLEWVSVIYSGGSTYDADSVKGRFTISRDNSKNTLYLQMNSLSAEDTAVYYCAREGDVEGYYDFWSGYSRDRYYFDYWGQGTLVTVSS VL: QSALTQPASVSGSPGQSITISCTGTSSDVGGYNYVSWYQQHPGKAPKLMIYDVSNRPSGVSNRFSGSKSGNTASLTISGLQAEDEADYYCSSYTSSSARVFGTGTKVTVL", "EC50", "ng/mL", 1.58),
    ("C059 (antibody, V domains shown) VH: QVQLVQSGAEVKKPGASIKVSCKASGYTFTDYSMHWVRQAPGQGLEWMGWINPNSGGTKYAQKFQGWVTMTRDMSITTVYMELTRLRSDATAVFYCARGPLFHKLVYDSWTGYHDGFDIWGQGTMVTVSS VL: QSALTQPASVSGSPGQSITISCTGTSSDVGGYNYVSWYQHYPGKAPKLMIYEVTHRPSGVSNRFSGSKSGNTASLTISGLQAEDEADYYCSSSTNSSTWVFGGGTKMTVL", "EC50", "ng/mL", 1.88),
    ("C058 (antibody, V domains shown) VH: QVQLVQSGAEVKKPGASVKVSCKASGYIFTDYSMHWVRQAPGQGLEWIGWVNPNSGGTNYAQKFQGWVTMARDTSITTVYMELSRLKSDDTAVYFCARGPLFHRLVYDFWSGYHDGFDMWGQGTMVTVSS VL: QSALTQPASVSGSPGQSITISCTGTSSDVGGYKFVSWYQQHPGKAPKLMIYEVSNRPSGVSNRFSGSKSGNTASLTISGLQAEDEADYYCNSYTSSSTWVFGGGTKLTVL", "EC50", "ng/mL", 2.28),
    ("C067 (antibody, V domains shown) VH: VQLVESGGGVVQPGRSLRLSCAASGFSFRIFGMNWVRQAPGKGLDWVAGISHDGSDKYFADSVKGRFTISRDNSKNTLYLQMNSLRADDTAVYYCARDMEVDYYDRSGHYHVFHAFDIWGQGTMVTVSS VL: DIVMTQSPDSLAVSLGARATINCKSSQSILYSSDNKSSLAWYQQKPGHPPKLLIYWASTRESGVPDRFSGSESGTDFTLTISNLQGEDVAVYYCQQYYSIPRSFGQGTKLEIK", "EC50", "ng/mL", 6.98),
]

Next item in the queue.
input: Provide only the value of recorded EC50 for C086 (antibody, V domains shown) VH: QVQLQESGPGLVKPSETLSLTCTVSGDSISTYFWAWIRQPPGRGLECIGSFFPSGSTYYNPSLKSRVTISVDTSKNQFSLKLNSVTAADTAVYYCARLKQQLVGFGWFDPWGQGSLVTVSS VL: QSVLTQPPSVSGAPGQRVTISCTGSISNIGADYEVHWYVQFPGTAPKVLIYANTNRPSGVPERFSASKSGTSASLAITGLQAEDEADYYCQSYDHRLHWVFGGGTKLTVL
output: 3.01
